study-target: Arylsulfatase A (Homo sapiens) (UniProt P15289)
Sequence (P15289 whole entry, looked up): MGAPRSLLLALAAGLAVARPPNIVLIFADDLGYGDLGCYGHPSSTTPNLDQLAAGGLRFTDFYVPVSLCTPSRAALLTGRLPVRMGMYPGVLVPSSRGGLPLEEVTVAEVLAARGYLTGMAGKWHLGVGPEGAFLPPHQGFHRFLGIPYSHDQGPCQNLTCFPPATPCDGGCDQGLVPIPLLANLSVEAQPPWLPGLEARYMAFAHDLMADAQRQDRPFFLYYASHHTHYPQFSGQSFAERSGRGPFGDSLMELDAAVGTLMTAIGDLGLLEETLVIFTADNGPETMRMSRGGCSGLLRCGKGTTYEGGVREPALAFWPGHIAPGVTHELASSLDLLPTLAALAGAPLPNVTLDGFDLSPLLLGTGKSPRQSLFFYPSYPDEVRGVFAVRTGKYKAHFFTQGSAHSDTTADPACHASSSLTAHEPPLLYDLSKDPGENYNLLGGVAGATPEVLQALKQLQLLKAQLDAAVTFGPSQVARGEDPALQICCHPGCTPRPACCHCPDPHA
assay-remarks: qHTS screen for enhancers of Arylsulfatase A (ASA1): LOPAC Validation Assay (AID 720538)
settings: ASA enzyme activity, LOPAC qHTS enhancer assay; series mostly up to 57.5 µM
Records with an inconclusive call do not appear. Activity calls are given as the source filed them. Calls follow the shape of the dose curve; as a rule, active = well fitted activation curve with a large enough effect; inconclusive = small, poorly fitted or top-dose-only effect; inactive = no such curve, though single readings can be large or run the other way.
Respond using exactly one of the listed classes: active, inactive

For COc1cccc(OC)c1OCCNCC1CSc2ccccc2O1 (stereo unspecified) , what call appears in the results of this test?
active

For CN(C)CCCc1cc(C(=O)Nc2ccc(-c3ccncc3)cc2)ccc1O , what call appears in the results of this test?
inactive

For Oc1ccc(/C=C/c2ccc(/C=C/c3ccc(O)cc3)c(Br)c2)cc1 , what call appears in the results of this test?
inactive

For C[C@@H](NCCc1ccc(O)cc1)[C@@H](O)c1ccc(O)cc1 , what call appears in the results of this test?
inactive

For CC1C(=O)N(C)C(=O)c2nc[nH]c21 (stereo unspecified) , what call appears in the results of this test?
inactive

For C=C1C[C@@]23CC[C@H]4[C@@](C)(CCC[C@@]4(C)C(=O)O)[C@@H]2CC[C@]1(O)C3 , what call appears in the results of this test?
inactive
